# experiment: A CellTox Green Cytotoxicity Assay to monitor cytotoxicity in HepG2 cells - 16 hour (AID 1224876); further: on the % scale 0 is the no-effect control and ±100 the full control effect; nearly all actives have a fitted effect of over 45% in size
# experimentalContext: CellTox Green fluorescence; series mostly up to 76.8 µM
Inconclusive results are not listed. Active and inactive are the calls of the source. The call rests on the fitted dose curve; in most records, active means well fitted activation curve with a large enough effect in the repeat runs; inconclusive means weak or mixed curves; inactive means flat fitted curve, though single readings scatter.
Pick one: TRUE (active), FALSE (inactive)

# count of solved cases: 3
{"columns": ["compound", "assignedCategory"],
 "data": [
  ["CNC(=O)Oc1cccc(C(C)C)c1", "FALSE"],
  ["NC1=NC(=O)C(c2ccccc2)O1 (centres undefined)", "FALSE"],
  ["O=[N+]([O-])c1cc(Cl)c(Cl)c(Cl)c1", "FALSE"]
]}

Request: Recorded test outcome, item CCSC(=O)N(CC)C1CCCCC1
Response: FALSE

Request: Recorded test outcome, item CC(C)CC#N
Response: FALSE

###

Measured activity change, positive = activation of individual entries
# experiment: qHTS assay to identify small molecule agonists of the estrogen related receptor (ERR) signaling pathway from Tox21 library (AID 1224849); further: on the % scale 0 is the no-effect control and ±100 the full control effect; nearly all actives have a fitted effect of over 15% in size
# experimentalContext: ERR reporter cell line, ONE-Glo luciferase, 18 h; at 92.4 µM (top of the series) unless noted
Activity calls are given as the source filed them. Calls come from the whole dose curve.

{"columns": ["compound", "activity change, positive = activation"],
 "data": [
  ["CC(=O)[C@H]1CC[C@H]2[C@@H]3CC[C@H]4C[C@H](O)CC[C@]4(C)[C@H]3C(=O)C[C@]12C", "-14.9% [at 42.5 µM] (inactive)"],
  ["Cc1cc(C)c(C(=O)P(=O)(C(=O)c2c(C)cc(C)cc2C)c2ccccc2)c(C)c1", "-2.99% (inactive)"],
  ["CN1CCC(O)(c2ccc(F)cc2)C(C(=O)c2ccc(F)cc2)C1 (stereo not given)", "0.426% [at 42.5 µM] (inactive)"],
  ["CCC#N", "0.336% (inactive)"]
]}

Request: For CCN(CC)C(=O)[C@@H]1C=C2c3cccc4[nH]cc(c34)C[C@H]2N(C)C1 , what is its reported activity change, positive = activation?
Response: -24.6% [at 240 µM] (inactive)

###

# experiment: qHTS assay to test for compound auto fluorescence at 535 nm (green) in HepG2 cells (AID 720675); further: on the % scale 0 is the no-effect control and ±100 the full control effect
# experimentalContext: green autofluorescence 485/535 nm, 1 h; series mostly up to 91.3 µM
Active and inactive are the calls of the source. Calls follow the shape of the dose curve; as a rule, active = well fitted curve in the direction sought with a large enough effect in the repeat runs; inconclusive = weak or mixed curves; inactive = flat fitted curve, though single readings scatter.
endpoint: fluorescence, % of fluorescein control

Please review the following examples before continuing.
{"columns": ["molecule", "endpoint", "observed"],
 "data": [
  ["CCS(=O)(=O)CCSP(=O)(OC)OC", "fluorescence, % of fluorescein control", "inactive"],
  ["CNNC", "fluorescence, % of fluorescein control", "inactive"],
  ["O=CNC(N1CCN(C(NC=O)C(Cl)(Cl)Cl)CC1)C(Cl)(Cl)Cl (centres undefined)", "fluorescence, % of fluorescein control", "inactive"],
  ["C[N+](C)=CCl", "fluorescence, % of fluorescein control", "inactive"],
  ["CC1=C(C(=O)Nc2ccccc2)S(=O)(=O)CCO1", "fluorescence, % of fluorescein control", "inactive"]
]}

Request: For c1coc(-c2nc3ccccc3[nH]2)c1 , what is its reported fluorescence, % of fluorescein control?
Response: inactive

Request: For CCCCC(=O)Cl , what is its reported fluorescence, % of fluorescein control?
Response: inactive

Request: For Cc1nnc2n1-c1sc(CCC(=O)N3CCOCC3)cc1C(c1ccccc1Cl)=NC2 , what is its reported fluorescence, % of fluorescein control?
Response: inactive

Request: For COC(=O)COc1ccc(Cl)cc1Cl , what is its reported fluorescence, % of fluorescein control?
Response: inactive

Request: For COc1cc(OC)nc(Oc2cccc(Oc3nc(OC)cc(OC)n3)c2C(=O)O)n1 , what is its reported fluorescence, % of fluorescein control?
Response: inactive

Request: For Cc1coc2c1CCC(C)C2 (centres undefined) , what is its reported fluorescence, % of fluorescein control?
Response: inactive

Request: For O=C(Nc1ccccc1)c1ccccc1I , what is its reported fluorescence, % of fluorescein control?
Response: inactive

Request: For COc1cc(OC)nc(NC(=O)NS(=O)(=O)c2ncccc2C(=O)N(C)C)n1 , what is its reported fluorescence, % of fluorescein control?
Response: inactive

Request: For N#CCCC#N , what is its reported fluorescence, % of fluorescein control?
Response: inactive

###

# experiment: A CellTox Green Cytotoxicity Assay to monitor cytotoxicity in HEK293 cells - 40 hour (AID 1224871); further: nearly all actives have a fitted effect of over 45% in size
# experimentalContext: CellTox Green fluorescence; series mostly up to 76.8 µM
Results filed as inconclusive are left out. Calls of active or inactive are those of the source. The call rests on the fitted dose curve; in most records, active means well fitted activation curve with a large enough effect in the repeat runs; inconclusive means weak or mixed curves; inactive means flat fitted curve, though single readings scatter.
Pick one: active, inactive

# count of solved cases: 6
{"columns": ["compound", "assignedCategory"],
 "data": [
  ["O=C(CCN1CC1)OCC(CO)(COC(=O)CCN1CC1)COC(=O)CCN1CC1", "inactive"],
  ["CCOP(=S)(OCC)Oc1cc(-c2ccccc2)on1", "inactive"],
  ["Clc1ccccc1N1CCNCC1", "inactive"],
  ["CC(C=O)Cc1ccc2c(c1)OCO2 (stereo unspecified)", "inactive"],
  ["C#CCN1C(=O)COc2cc(F)c(N3C(=O)C4=C(CCCC4)C3=O)cc21", "inactive"],
  ["CNC(=O)Oc1c(C(C)(C)C)cc(C)cc1C(C)(C)C", "inactive"]
]}

Request: Recorded test outcome, item CCC(C)(C)c1cc(-n2nc3ccccc3n2)c(O)c(C(C)(C)CC)c1
Response: inactive

Request: Recorded test outcome, item COc1ccc(C(=O)N2CCCC2=O)cc1
Response: inactive

Request: Recorded test outcome, item CC(=O)[C@H]1CC[C@H]2[C@@H]3CC[C@H]4C[C@H](O)CC[C@]4(C)[C@H]3C(=O)C[C@]12C
Response: inactive

Request: Recorded test outcome, item COc1ncc(F)c2nc(S(=O)(=O)Nc3c(F)cccc3F)nn12
Response: active

Request: Recorded test outcome, item Cc1ncc2n1-c1ccc(Cl)cc1C(c1ccccc1F)=NC2
Response: inactive

###

# experiment: qHTS assay to identify small molecule antagonists of the progesterone receptor (PR) signaling pathway - cell viability counter screen (AID 1346798);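 further: HEK293T PR-UAS-bla cells stimulated with the agonist R5020; on the % scale 0 is the no-effect control and ±100 the full control effect; nearly all actives have a fitted effect of over 50% in size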
# experimentalContext: PR-UAS-bla HEK293T viability, CellTiter-Glo luminescence, 16 h; series mostly up to 92.4 µM
Records with an inconclusive call do not appear. The source made the active and inactive calls. Calls come from the whole dose curve; as a rule, active = well fitted cell-killing curve with a large enough effect in the repeat runs; inconclusive = weak or mixed curves, or effect the other way; inactive = no such curve, though single readings can be large or run the other way.
endpoint: outcome

Please review the following examples before continuing.
{"columns": ["compound", "observed"],
 "data": [
  ["Clc1ccccc1N1CCNCC1", "inactive"],
  ["ClCC(Cl)(Cl)Cl", "inactive"],
  ["CN1CCC(O)(c2ccc(F)cc2)C(C(=O)c2ccc(F)cc2)C1 (stereo not given)", "inactive"],
  ["OC(c1ccc(F)cc1)(c1cncnc1)c1ccccc1Cl (stereo not given)", "inactive"],
  ["COc1cc(OC)nc(Oc2cccc(Oc3nc(OC)cc(OC)n3)c2C(=O)O)n1", "inactive"],
  ["O=C1CN2CCOC2(c2ccccc2Cl)c2cc(Cl)ccc2N1 (stereo not given)", "inactive"],
  ["CSc1ccc(C(=O)C(C)(C)N2CCOCC2)cc1", "inactive"],
  ["O=NN1CCCCC1", "inactive"],
  ["N#Cc1ccncc1", "inactive"],
  ["CCCCOP(=O)(O)OCCCC", "inactive"]
]}

Request: For O=C(O)c1cccc(Cl)c1 , what is its reported outcome?
Response: inactive

Request: For CCCCc1ccc(O)cc1 , what is its reported outcome?
Response: inactive

Request: For O=C(Cc1ccccc1)OCc1ccccc1 , what is its reported outcome?
Response: inactive

Request: For NC(=O)c1cc([N+](=O)[O-])cc([N+](=O)[O-])c1 , what is its reported outcome?
Response: inactive

Request: For CCOP(=S)(Oc1cnc(C(C)(C)C)nc1)OC(C)C (stereo not given) , what is its reported outcome?
Response: inactive

###

# assaySystem: Acetylcholinesterase (Homo sapiens) (UniProt P22303)
# Sequence (P22303 whole entry, looked up): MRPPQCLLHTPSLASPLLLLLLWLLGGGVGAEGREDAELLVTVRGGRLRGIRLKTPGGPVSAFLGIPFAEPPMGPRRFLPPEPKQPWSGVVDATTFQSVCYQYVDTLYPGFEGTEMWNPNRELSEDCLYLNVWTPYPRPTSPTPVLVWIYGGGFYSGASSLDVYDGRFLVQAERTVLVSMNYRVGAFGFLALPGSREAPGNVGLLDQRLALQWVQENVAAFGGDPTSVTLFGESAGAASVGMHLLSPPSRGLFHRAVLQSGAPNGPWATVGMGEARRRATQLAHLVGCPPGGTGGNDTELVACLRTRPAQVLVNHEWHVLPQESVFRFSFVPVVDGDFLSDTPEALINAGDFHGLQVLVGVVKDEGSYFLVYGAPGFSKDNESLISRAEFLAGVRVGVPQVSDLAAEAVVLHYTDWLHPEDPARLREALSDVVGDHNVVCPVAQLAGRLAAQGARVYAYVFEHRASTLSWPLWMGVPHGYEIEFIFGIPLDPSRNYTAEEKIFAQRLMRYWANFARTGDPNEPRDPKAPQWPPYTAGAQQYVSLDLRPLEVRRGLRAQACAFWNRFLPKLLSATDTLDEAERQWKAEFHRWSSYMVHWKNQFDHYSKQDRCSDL
# experiment: Acetylcholinesterase (AChE) small molecule antagonists: fluorescence cell-based qHTS assay (AID 1347398); further: on the % scale 0 is the no-effect control and ±100 the full control effect; nearly all actives have a fitted effect of over 50% in size
# experimentalContext: SH-SY5Y cells; AChE activity; series mostly up to 115 µM
Records with an inconclusive call do not appear. Active and inactive are the calls of the source. Calls come from the whole dose curve.
Pick one: 1 for active, 0 for inactive

{"columns": ["molecule", "assignedCategory"],
 "data": [
  ["CSc1ccc(C(=O)C(C)(C)N2CCOCC2)cc1", 0],
  ["N#CC(O)c1ccccc1 (stereo not given)", 0],
  ["COc1cc(C[C@@H](C)N)c(OC)cc1C", 0],
  ["CCC(Cl)[N+](=O)[O-] (stereo not given)", 0],
  ["CN(C)CCc1ccc(O)cc1", 0],
  ["c1ccc(N2CCNCC2)cc1", 0],
  ["O=C(O)C(Br)CBr (stereo not given)", 0],
  ["CN1CCC(N(Cc2ccccc2)c2ccccc2)CC1", 0],
  ["CCC(C)n1c(=O)[nH]c(C)c(Br)c1=O (stereo not given)", 0],
  ["O=C1OC(=O)C2C1C1(Cl)C(Cl)=C(Cl)C2(Cl)C1(Cl)Cl (stereo not given)", 0]
]}

Request: Recorded test outcome, item O=CNC(N1CCN(C(NC=O)C(Cl)(Cl)Cl)CC1)C(Cl)(Cl)Cl (stereo not given)
Response: 0
